Here the recorded DC50 is given for each entry.
Target Under Test: SMARCA2 (Homo sapiens)
Sequence (P51531 whole entry): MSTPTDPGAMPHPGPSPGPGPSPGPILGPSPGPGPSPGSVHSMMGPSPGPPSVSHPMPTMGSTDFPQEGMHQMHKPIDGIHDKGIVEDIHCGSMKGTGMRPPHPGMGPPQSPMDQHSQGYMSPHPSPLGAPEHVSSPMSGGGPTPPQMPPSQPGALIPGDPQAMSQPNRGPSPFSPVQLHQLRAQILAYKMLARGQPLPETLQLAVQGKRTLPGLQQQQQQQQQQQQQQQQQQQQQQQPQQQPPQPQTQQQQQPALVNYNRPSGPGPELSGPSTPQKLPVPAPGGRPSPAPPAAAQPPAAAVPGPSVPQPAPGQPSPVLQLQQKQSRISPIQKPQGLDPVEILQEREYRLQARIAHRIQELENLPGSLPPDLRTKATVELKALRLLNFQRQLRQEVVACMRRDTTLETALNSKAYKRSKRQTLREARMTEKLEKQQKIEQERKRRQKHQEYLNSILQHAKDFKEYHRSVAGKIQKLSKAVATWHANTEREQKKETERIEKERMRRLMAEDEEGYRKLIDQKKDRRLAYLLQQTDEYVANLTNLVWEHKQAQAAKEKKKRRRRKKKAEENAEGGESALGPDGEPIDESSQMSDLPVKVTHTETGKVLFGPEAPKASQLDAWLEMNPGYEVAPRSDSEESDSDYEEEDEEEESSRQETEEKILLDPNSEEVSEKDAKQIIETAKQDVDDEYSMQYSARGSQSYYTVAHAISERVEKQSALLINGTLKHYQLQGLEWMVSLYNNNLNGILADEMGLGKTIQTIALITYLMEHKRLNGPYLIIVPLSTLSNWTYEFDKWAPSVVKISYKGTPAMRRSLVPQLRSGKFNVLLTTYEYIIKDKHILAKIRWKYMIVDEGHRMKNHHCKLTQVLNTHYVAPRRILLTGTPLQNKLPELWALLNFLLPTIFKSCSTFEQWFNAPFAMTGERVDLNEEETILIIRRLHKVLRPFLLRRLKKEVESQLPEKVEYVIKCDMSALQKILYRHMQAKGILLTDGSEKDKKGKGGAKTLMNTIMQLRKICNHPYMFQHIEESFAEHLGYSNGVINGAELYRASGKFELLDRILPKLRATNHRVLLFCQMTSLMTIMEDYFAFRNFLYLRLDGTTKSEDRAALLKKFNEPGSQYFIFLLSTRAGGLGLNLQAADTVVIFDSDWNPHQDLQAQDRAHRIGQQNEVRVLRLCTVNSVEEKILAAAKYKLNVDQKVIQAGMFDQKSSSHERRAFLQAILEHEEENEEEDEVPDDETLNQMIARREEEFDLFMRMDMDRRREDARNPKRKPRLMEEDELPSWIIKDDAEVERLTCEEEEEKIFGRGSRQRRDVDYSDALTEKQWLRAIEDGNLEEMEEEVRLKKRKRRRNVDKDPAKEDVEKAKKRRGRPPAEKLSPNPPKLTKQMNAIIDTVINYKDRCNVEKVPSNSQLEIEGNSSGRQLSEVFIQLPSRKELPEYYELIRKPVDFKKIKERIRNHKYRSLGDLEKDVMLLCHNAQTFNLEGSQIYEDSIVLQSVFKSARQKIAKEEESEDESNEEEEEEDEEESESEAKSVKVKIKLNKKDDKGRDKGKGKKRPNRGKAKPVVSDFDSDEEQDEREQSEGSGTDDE
Method Description: SMARCA2 Western blot degradation in MV4-11 cells
Type: cell-based
Set-up: SMARCA2/SMARCA4 protein degradation selectivity in MV4-11 cells; endogenous in cells; host or cells: MV4-11
Settings: MV4-11 cells, 24 h; read-out: SMARCA2 MSD MV411 degradation 24 h: Mean external-Abs DC50
Measured Attribute: DC50

[
  {
    "Smiles Code": "C#Cc1ccc(CNC(=O)[C@@H]2C[C@@H](O)CN2C(=O)[C@@H](NC(=O)N2CCN(CC3CCN([C@H]4CC[C@H](N5CCN6c7cc(-c8ccccc8O)nnc7NC[C@H]6C5)CC4)CC3)CC2)C(C)(C)C)cc1",
    "Test Result": "10 to 100 nM"
  },
  {
    "Smiles Code": "C#Cc1ccc([C@H](C)NC(=O)[C@@H]2C[C@@H](O)CN2C(=O)[C@@H](NC(=O)N2CC3(CC(N4CCC(c5cnc(N6CCc7[nH]c8nnc(-c9ccccc9O)cc8c7[C@H]6C)nc5)CC4)C3)C2)C(C)(C)CCO)cc1",
    "Test Result": "1 to 10 nM"
  }
]

====

Target Under Test: UniProtKB P51531
Method Description: MSD SMARCA2 degradation in A549 cell line
Assay type: cell-based
Settings: A549, A549 cells, 24 h
Measured Attribute: Dmax

[
  {
    "Compound": "Cc1ncsc1-c1ccc(CNC(=O)[C@@H]2C[C@@H](O)CN2C(=O)C(c2cc(OCCCN3CCC(c4cnc(N5CCN6c7cc(-c8ccccc8O)nnc7NCC6C5)nc4)CC3)no2)C(C)C)cc1 (stereo in doubt)",
    "Measured Attribute": "Dmax",
    "Test Result": "> 90%"
  },
  {
    "Compound": "C#Cc1ccc(CNC(=O)[C@@H]2C[C@@H](O)CN2C(=O)[C@H](NC(=O)N2CC3(CC(N4CCC(c5cnc(N6CCc7[nH]c8nnc(-c9ccccc9O)cc8c7[C@H]6C)nc5)CC4)C3)C2)C(C)(C)CCO)c(Cl)c1 (single isomer, unassigned)",
    "Measured Attribute": "Dmax",
    "Test Result": "< 50%"
  },
  {
    "Compound": "C#Cc1ccc([C@@H](CO)NC(=O)[C@@H]2C[C@@H](O)CN2C(=O)[C@@H](NC(=O)N2CC3(CC(N4CCC(c5cnc(N6CCc7[nH]c8nnc(-c9ccccc9O)cc8c7[C@H]6C)nc5)CC4)C3)C2)C(C)(C)C)nc1",
    "Measured Attribute": "Dmax",
    "Test Result": "50 to 70%"
  },
  {
    "Compound": "C#Cc1ccc(CNC(=O)[C@@H]2C[C@@H](O)CN2C(=O)[C@@H](NC(=O)[C@H]2CCC3(CC2)C[C@H](N2CCC(c4ccc(N5CCN6c7cc(-c8ccccc8O)nnc7NC[C@H]6C5)nc4)CC2)C3)C(C)(C)C)cc1 (single isomer, unassigned)",
    "Measured Attribute": "Dmax",
    "Test Result": "> 90%"
  }
]

====

Target Under Test: SMARCA2 (Homo sapiens)
Method Description: SMARCA2 Western blot degradation in MV4-11 cells
Format: cell-based
Parameters: SMARCA2/SMARCA4 protein degradation selectivity in MV4-11 cells; endogenous in cells; host or cells: MV4-11
Settings: MV4-11 cells, 24 h; read-out: SMARCA2 MSD MV411 degradation 24 h: Mean external-Abs DC50
Here the recorded DC50 is given for each entry.

[
  {
    "Compound": "C#Cc1ccc(CNC(=O)[C@@H]2C[C@@H](O)CN2C(=O)[C@@H](NC(=O)c2ccc(N3CCC(N4CCC(N5CCN6c7cc(-c8ccccc8O)nnc7NC[C@H]6C5)CC4)CC3)cc2)C(C)(C)C)cc1",
    "Target Under Test": "SMARCA2 (Homo sapiens)",
    "DC50": "1 to 10 nM"
  },
  {
    "Compound": "C#Cc1ccc([C@H](C)NC(=O)[C@@H]2C[C@@H](O)CN2C(=O)[C@@H](NC(=O)N2CC3(CC(N4CCN(c5cnc(N6CCc7[nH]c8nnc(-c9ccccc9O)cc8c7[C@H]6C)nc5)CC4)C3)C2)C(C)(C)CCO)cc1",
    "Target Under Test": "SMARCA2 (Homo sapiens)",
    "DC50": "1 to 10 nM"
  },
  {
    "Compound": "C#Cc1ccc(CNC(=O)[C@@H]2C[C@@H](O)CN2C(=O)[C@@H](NC(=O)[C@H]2CCC3(CC2)C[C@H](N2CCC(c4cnc(N5CCN6c7cc(-c8ccccc8O)nnc7NC[C@H]6C5)nc4)CC2)C3)C(C)(C)C)c(OC)c1 (single isomer, unassigned) [I-100]",
    "Target Under Test": "SMARCA2 (Homo sapiens)",
    "DC50": "< 1 nM"
  },
  {
    "Compound": "C#Cc1ccc(CNC(=O)[C@@H]2C[C@@H](O)CN2C(=O)[C@@H](NC(=O)C2CC3(C2)CC(N2CCC(N4CCC(N5CCN6c7cc(-c8ccccc8O)nnc7NC[C@H]6C5)CC4)CC2)C3)C(C)(C)C)cc1 (stereo partly shown)",
    "Target Under Test": "SMARCA2 (Homo sapiens)",
    "DC50": "1 to 10 nM"
  }
]
